B1: ANKRD9 (parent)
chain: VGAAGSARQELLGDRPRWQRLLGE

Variants of: B1
method: protein stability index of a GFP-peptide fusion (GPS, HEK-293T) (PSI 1-6); higher = more stable;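 further: lentivirally expressed fusions sorted by FACS into six bins by GFP to DsRed ratio, PSI derived from sequencing read proportions per bin multiplied by bin number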
experimental conditions: c terminus: a fixed tail appended
Binary classification by protein stability index, with 3 as an inclusive lower bound for class 1; all other cases are class 0.

Please review the entries below; each comes with its answer.
R15G = class 1
A3K = class 0

State whether the measured protein stability index reaches 3, counting equality as reaching it, for G13V
class 0

State whether the measured protein stability index reaches 3, counting equality as reaching it, for L21S
class 1

State whether the measured protein stability index reaches 3, counting equality as reaching it, for E24C
class 0

State whether the measured protein stability index reaches 3, counting equality as reaching it, for R20Q
class 0

State whether the measured protein stability index reaches 3, counting equality as reaching it, for R17Q
class 1

State whether the measured protein stability index reaches 3, counting equality as reaching it, for R8N
class 1
